- Test system: SW-620 colon
- Method summary: NCI tumour cell line growth inhibition, 48 h
Measured parameter: TGI

Molecule	Value measured
Cc1cc(Nc2ccc(NS(C)(=O)=O)cc2)c2c(ccc3nccc32)[nH]1	> 100 µM
O=C1CNC(=O)c2[nH]cnc2N1	> 100 µM
CCOC(=O)C(Cc1ccccc1)NC(=O)c1[nH]cnc1/N=N/N(C)C (stereo unspecified)	> 100 µM
O=S(=O)(N=NC=C1c2ccccc2N(O)c2ccccc21)c1ccc(Cl)cc1	> 100 µM
COC1=C(Cl)C(=O)c2c(O)ccc(O)c2C1=O	0.46 µM
CC([C@H]1CC=C2C3CCC4=C[C@@H](N(C)C)CC[C@]4(C)C3CC[C@@]21C)N(C)C (stereo partly specified)	8.24 µM
COC(=O)C(=O)C(C(=O)C(=O)Nc1ccccc1OC)c1nc2ccc([N+](=O)[O-])cc2[nH]c1=O (stereo unspecified)	> 100 µM
O=C(c1cccnc1)N1N=C(c2ccccc2)CC1(O)c1cc(F)c(Cl)cc1Cl (stereo unspecified)	> 100 µM
C[C@H]1CNC(=O)c2cnn3ccc(nc23)N[C@H](C)c2cc(F)ccc2O1	> 55.1 µM
CC(C)C(=O)/C=C/S/C=C/C(=O)C(C)C	17 µM
CCOC(=O)C(=CNC(=S)N=Nc1c(O)[nH]c2ccccc12)C(=O)OCC	> 100 µM
C=CCOC(=O)N1c2ccc(O)cc2[C@@]23O[C@@]24[C@@H]1C#C/C=C\C#C[C@]3(O)C(OC)(OC)C[C@@H]4C	> 100 µM
Cn1c2ccccc2c2cc(N3CCCC3)c3c(c21)C(=O)N(c1ccccc1)C3=O	> 100 µM
Cc1cc(OCCOCCC(F)(F)P(=O)(O)O)ccc1CCc1cnc2c(N)nc3cc(CCC(=O)O)ccc3c2c1	> 100 µM
NC(N)=NC(N)=NCCCc1ccco1	125 µM
CO/N=C(\C([O-])=N\[n+]1cnn(CC(=O)OC(C)(C)C)c1)c1csc(NC(c2ccccc2)(c2ccccc2)c2ccccc2)n1	> 10 µM
COC(=O)C(Cc1c[nH]c2ccccc12)NP(=O)(O)OCC1OC(n2cc(Br)c(=O)[nH]c2=O)CC1O (stereo unspecified)	> 100 µM
COc1cc(C(=O)O[C@H](C(=O)NCCN(C)CCNC(=O)[C@@H](OC(=O)c2cc(OC)cc3c(C)cccc23)[C@]2(C)CO2)[C@]2(C)CO2)c2cccc(C)c2c1	0.152 µM
Nc1nc(SCc2ccccc2Cl)cc(C(=O)O)n1	> 100 µM
COC(=O)C1=C(C(=O)OC)C(N(C)C)C(C(=O)OC)=C(C(=O)OC)S1	> 100 µM
Nn1c(=O)[nH]c2ncn(Cc3ccccc3)c2c1=O	> 100 µM
